Collected literature values of IC50 measured for CaMKIIδ (Homo sapiens (Human)).

Q) API: value(readout=IC50, system=CaMKIIδ (Homo sapiens (Human))) for record `NCCNc1cccc(-c2ccnc3[nH]c4ccccc4c23)c1`
A) ≤ 50 nM

Q) API: value(readout=IC50, system=CaMKIIδ (Homo sapiens (Human))) for record `C(=C\c1ccnc2[nH]c3ccccc3c12)/CN1CCNCC1`
A) ≥ 1000 nM

Q) API: value(readout=IC50, system=CaMKIIδ (Homo sapiens (Human))) for record `C(=C/c1ccnc2[nH]c3ccccc3c12)/CN1CCNCC1`
A) ≥ 1000 nM

Q) API: value(readout=IC50, system=CaMKIIδ (Homo sapiens (Human))) for record `c1ccc2c(c1)[nH]c1nccc(-n3cc(C4CCNCC4)nn3)c12`
A) ≥ 1000 nM

Q) API: value(readout=IC50, system=CaMKIIδ (Homo sapiens (Human))) for record `c1ccc2c(c1)[nH]c1nccc(-c3cc[nH]c3)c12`
A) 250 to 1000 nM

Q) API: value(readout=IC50, system=CaMKIIδ (Homo sapiens (Human))) for record `NCCCOc1cccc(-c2ccnc3[nH]c4ccccc4c23)c1`
A) ≤ 50 nM

Q) API: value(readout=IC50, system=CaMKIIδ (Homo sapiens (Human))) for record `NCc1cccc(-c2ccnc3[nH]c4ccccc4c23)c1`
A) ≥ 1000 nM

Q) API: value(readout=IC50, system=CaMKIIδ (Homo sapiens (Human))) for record `Cc1ccc2[nH]c3nccc(-c4cccc(NCCN)c4)c3c2c1`
A) ≤ 50 nM

Q) API: value(readout=IC50, system=CaMKIIδ (Homo sapiens (Human))) for record `Nc1cccc(-c2ccnc3[nH]c4ccccc4c23)c1`
A) 50 to 250 nM

Q) API: value(readout=IC50, system=CaMKIIδ (Homo sapiens (Human))) for record `COc1ccc2c(c1)/C(=C/c1cnc(C3CCOCC3)[nH]1)C(=O)N2`
A) 276 nM

Q) API: value(readout=IC50, system=CaMKIIδ (Homo sapiens (Human))) for record `Clc1ccncc1-c1ccnc2[nH]c3ccccc3c12`
A) ≥ 1000 nM

Q) API: value(readout=IC50, system=CaMKIIδ (Homo sapiens (Human))) for record `C(#Cc1ccnc2[nH]c3ccccc3c12)CN1CCNCC1`
A) 250 to 1000 nM

Q) API: value(readout=IC50, system=CaMKIIδ (Homo sapiens (Human))) for record `Cc1ncc(/C=C2\C(=O)Nc3ccc(OC(C)C)cc32)[nH]1`
A) 615 nM

Q) API: value(readout=IC50, system=CaMKIIδ (Homo sapiens (Human))) for record `c1ccc2c(c1)[nH]c1nccc(-c3cnn(C4CCNCC4)c3)c12`
A) ≥ 1000 nM

Q) API: value(readout=IC50, system=CaMKIIδ (Homo sapiens (Human))) for record `c1cc(-c2ccnc3[nH]c4ccccc4c23)nc(N2CCNCC2)c1`
A) ≤ 50 nM

Q) API: value(readout=IC50, system=CaMKIIδ (Homo sapiens (Human))) for record `c1ccc2c(c1)[nH]c1nccc(-c3cnc(N4CCNCC4)s3)c12`
A) ≥ 1000 nM

Q) API: value(readout=IC50, system=CaMKIIδ (Homo sapiens (Human))) for record `COc1ccc2c(c1)/C(=C/c1cnc(C(C)(C)C)[nH]1)C(=O)N2`
A) 1470 nM

Q) API: value(readout=IC50, system=CaMKIIδ (Homo sapiens (Human))) for record `N=C(N)NCc1cccc(-c2ccnc3[nH]c4ccccc4c23)c1`
A) 250 to 1000 nM

Q) API: value(readout=IC50, system=CaMKIIδ (Homo sapiens (Human))) for record `COc1ccc2c(c1)[nH]c1nccc(-c3cccc(NCCN)c3)c12`
A) ≤ 50 nM

Q) API: value(readout=IC50, system=CaMKIIδ (Homo sapiens (Human))) for record `NCCNc1cccc(-c2ccnc3[nH]c4ccc(Cl)cc4c23)c1`
A) ≤ 50 nM

Q) API: value(readout=IC50, system=CaMKIIδ (Homo sapiens (Human))) for record `c1cc(-c2ccnc3[nH]c4ccccc4c23)cc(N2CCNCC2)c1`
A) 50 to 250 nM
